Data origin: the OPERA property sets (Mansouri et al. 2018)

logP listing for selected compounds.

Study these solved cases before continuing.
{"columns": ["compound", "observed value"],
 "data": [
  ["O=C(O)c1ccc2ccccc2c1", 3.28],
  ["CC(=O)OCC(COC(C)=O)OC(C)=O", 0.25],
  ["CCCCOc1cccc(O)c1", 3.03],
  ["CC(C)C(=O)NC(N)=O", 0.04],
  ["CNC1=CC(=O)C(NC)=CC1=O", 0.34],
  ["CCN(CC)CCOC(=O)C=Cc1ccc(OC)cc1", 3.55],
  ["Nc1ccc(C(=O)Oc2ccc(Br)cc2)c(O)c1", 3.46],
  ["O=CNc1ccccc1", 1.15]
]}

Let's switch to this compound now.
Any idea what logP was measured for `O=C(O)c1ccc(F)cc1` ? 2.07
